Target: T1, cyno IL-23 (cyno, limits assumed)
T1 construct: Heterodimer of p19 and p40; also called cynomolgus IL-23
T1 chain 1: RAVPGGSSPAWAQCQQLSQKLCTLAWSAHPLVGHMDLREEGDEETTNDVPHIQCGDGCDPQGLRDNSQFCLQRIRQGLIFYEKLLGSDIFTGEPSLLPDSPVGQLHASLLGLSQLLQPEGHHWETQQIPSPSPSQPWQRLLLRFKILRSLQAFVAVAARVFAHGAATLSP
T1 chain 2: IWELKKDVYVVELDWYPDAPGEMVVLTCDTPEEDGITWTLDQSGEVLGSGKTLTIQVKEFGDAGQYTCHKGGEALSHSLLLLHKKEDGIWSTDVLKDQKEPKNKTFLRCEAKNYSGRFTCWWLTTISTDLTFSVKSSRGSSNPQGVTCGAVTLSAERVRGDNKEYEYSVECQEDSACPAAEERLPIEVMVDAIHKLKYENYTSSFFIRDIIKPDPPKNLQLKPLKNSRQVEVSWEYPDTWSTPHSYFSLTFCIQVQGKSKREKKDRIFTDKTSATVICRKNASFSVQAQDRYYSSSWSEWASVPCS
Experiment: SPR Biacore T100, mAb from HEK supernatant captured on anti-human IgG, one concentration of cyno IL-23 (256 nM)
measurement-kind: kon (M⁻¹ s⁻¹)
Could you give me the number in M⁻¹ s⁻¹? Just the number is fine.

A24AM18 (antibody, human IgG1, kappa, V domains shown) VH: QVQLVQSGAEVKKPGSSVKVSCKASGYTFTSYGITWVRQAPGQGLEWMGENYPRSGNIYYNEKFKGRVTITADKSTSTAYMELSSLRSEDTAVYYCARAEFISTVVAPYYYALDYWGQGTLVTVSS VL: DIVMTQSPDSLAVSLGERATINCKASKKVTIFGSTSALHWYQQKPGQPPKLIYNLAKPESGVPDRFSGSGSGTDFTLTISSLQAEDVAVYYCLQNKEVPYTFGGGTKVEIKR
1.91e+06
A6M20 (antibody, human IgG1, kappa, V domains shown) VH: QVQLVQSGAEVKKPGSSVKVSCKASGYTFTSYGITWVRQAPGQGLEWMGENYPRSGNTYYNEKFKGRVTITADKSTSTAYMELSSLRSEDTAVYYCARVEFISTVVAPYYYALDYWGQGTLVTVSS VL: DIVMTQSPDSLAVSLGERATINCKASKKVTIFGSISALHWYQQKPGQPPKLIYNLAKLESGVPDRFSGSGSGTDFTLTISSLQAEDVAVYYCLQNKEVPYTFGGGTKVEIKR
3.65e+06

Q: Read off the recorded kon for A3M0 (antibody, human IgG1, kappa, V domains shown, human gamma1 and kappa constant regions; Tested as HEK supernatant and as purified antibody; also called A3M0 purified) VH: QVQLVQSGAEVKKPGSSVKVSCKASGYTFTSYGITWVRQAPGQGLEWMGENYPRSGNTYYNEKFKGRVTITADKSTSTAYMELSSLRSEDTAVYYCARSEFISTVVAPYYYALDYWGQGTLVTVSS VL: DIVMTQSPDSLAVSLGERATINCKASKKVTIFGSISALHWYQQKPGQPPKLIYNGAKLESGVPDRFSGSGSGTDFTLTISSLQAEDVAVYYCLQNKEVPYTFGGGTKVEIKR
A: 1.33e+06
